System: Bacillus subtilis
Experiment: Antibacterial activity against Bacillus subtilis ATCC 530 after 24 hrs by MTT assay
Type: functional
Details: ATCC 530, 24 h
Listed below: MIC values for each entry.
Respond with the bare value in mg/L.

MOLECULE	MEASUREMENT_TARGET	READOUT_UNITS	MIC
NC[C@H]1O[C@H](O[C@H]2[C@H](O)[C@@H](O[C@H]3O[C@H](CO)[C@@H](O)[C@H](N)[C@H]3O)[C@H](N)C[C@@H]2N)[C@H](O)[C@@H](O)[C@@H]1O [KANAMYCIN]	Bacillus subtilis	mg/L	1.56
Cc1ncc([N+](=O)[O-])n1Cc1nnc(Cc2ccc([N+](=O)[O-])cc2)o1	Bacillus subtilis	mg/L	25
Cc1ncc([N+](=O)[O-])n1Cc1nnc(Cc2ccc(F)cc2)o1	Bacillus subtilis	mg/L	50
Cc1ccccc1Cc1nnc(Cn2c([N+](=O)[O-])cnc2C)o1	Bacillus subtilis	mg/L	50
Cc1ncc([N+](=O)[O-])n1Cc1nnc(Cc2ccc(Br)cc2)o1	Bacillus subtilis	mg/L	50

Lookup: Please look up its MIC: Cc1ncc([N+](=O)[O-])n1Cc1nnc(-c2cccc(Br)c2)o1
Found: 6.25

Lookup: Please look up its MIC: Cc1ncc([N+](=O)[O-])n1Cc1nnc(-c2ccc(Cl)cc2)o1
Found: 12.5

Lookup: Please look up its MIC: Cc1ncc([N+](=O)[O-])n1Cc1nnc(-c2ccc(F)cc2)o1
Found: 12.5

Lookup: Please look up its MIC: COc1ccccc1-c1nnc(Cn2c([N+](=O)[O-])cnc2C)o1
Found: 1.56

Lookup: Please look up its MIC: Cc1ncc([N+](=O)[O-])n1Cc1nnc(Cc2ccc(Cl)cc2)o1
Found: 50

Lookup: Please look up its MIC: COc1cccc(-c2nnc(Cn3c([N+](=O)[O-])cnc3C)o2)c1
Found: 6.25

Lookup: Please look up its MIC: Cc1ncc([N+](=O)[O-])n1Cc1nnc(-c2ccc(Br)cc2)o1
Found: 12.5

Lookup: Please look up its MIC: Cc1ncc([N+](=O)[O-])n1Cc1nnc(Cc2cccc(Br)c2)o1
Found: 25

Lookup: Please look up its MIC: Cc1ncc([N+](=O)[O-])n1Cc1nnc(-c2ccc([N+](=O)[O-])cc2)o1
Found: 25

Ref: ChEMBL document CHEMBL2046408
